Target: SARS-CoV-2 S on pseudovirions (Wuhan Hu-1 / IL1/2020, last 18 amino acids removed) (SARS-CoV-2, UniProt P0DTC2 14-1273)
Test: cell-based or functional assay

binder: COV_2100 (antibody, V domains shown, human IgG1) VH: EVQLVESGGGLVQPGGSLRLSCAASGFTFSSYDMYWVRQATGKGLEWVSAIGTAGDTYYPGSVKGRFTISRENAKNSLYLRMNSLRAGDTAVYFCARADKNTAMFFDYWGQGTLVTVSS VL: DIQMTQSPSSLSASVGDRVTITCRASQNINNFLHWYQQKPGNAPKLLIYAASTLQSGVPSRFSGSGSGTDFTLTISSLQPEDFATYYCQQSYSTPGGTFGGGTKVEIK
valueRelationSign: ≥
Mean IC80, pSV neutralization (µg/ml): 25

binder: COV_2039 (antibody, V domains shown, human IgG1) VH: QVQLVQSGAEVKKPGASVKVSCKVSGYMLIELSMHWVRQAPGKGLEWMGGFDPEDAETIYAQEFQGRVTMTEDTSTDTAYMELSSLRSEDTAVYYCTTGPAVTNRPADYWGPGTLVTVSS VL: QSVLTQPPSVSGAPGQRVTISCTGSSSNIGASYDVHWYQQLPGTAPKLLIYANSNRPSGVPDRFSGSKSGTSASLAITGLQAEDEADYYCQSYDSSLSYSVVFGGGTKLTVL
valueRelationSign: =
Mean IC80, pSV neutralization (µg/ml): 1.8

binder: COV_1144 (antibody, V domains shown, human IgG1) VH: EVQLVESGGGLVQPGGSLRLSCAASGFTFRSFWMSWVRQAPGKGLEWVANIKEDASEKHYVDPVKGRFTISRDNAKNSLYLQLNSLRAEDMAVYYCARVGRGYCTNGLCYTAFEYWGQGTLVTVSS VL: DIQMTQSPSSLSASVGDRVTITCRTSQSISNYLNWYQQKPGKAPKLLIYAASSLQSGVPSRFSGSGSGTDFTLTISSLQPEDFATYYCQQSYSTAWTFGQGTKVEIRR
valueRelationSign: ≥
Mean IC80, pSV neutralization (µg/ml): 25

binder: COV_2165 (antibody, V domains shown, human IgG1) VH: EVQLVESGGGLVQPGGSLRLSCAASGFTFSSYSMNWVRQAPGKGLEWVSYISSSSSTIYYADYVKGRFTISRDNAKNSLYLQMNSLRAEDRAVYYCARVARRDVAPATIAAYFLDYWGQGTLVTVSS VL: EIVLTQSPATLSLSPGERATLSCRASQSLSSYLAWYQQKPGQAPRLLIYDASTRATGIPARFSGSGSGTDFTLTISSLEPEDFAVYYCQQRSTWPRGFTFGPGTKVDIK
valueRelationSign: =
Mean IC80, pSV neutralization (µg/ml): 0.04

binder: COV_1131 (antibody, V domains shown, human IgG1) VH: QVQLQESGPGLVKPSETLSLTCSVSGGSISSYYWSWIRQPPGKGLEWIGYISYSGSTNYNPSLKSRVTISVDTSKNQFSLKLSSVTAADTAVYYCARLGFGGIYPSLYDAFDIWGQGTMVTVSS VL: DIQMTQSPSSLSASVGDRVTITCRASQTISSYLNWYQQKPGKAPNLLIYDASSLQRGVPSRFSGSGSGTDFTLTISSLQPEDFATYYCQQSYSTPRTFGQGTKVEIKR
valueRelationSign: ≥
Mean IC80, pSV neutralization (µg/ml): 25
